Biological target: Arginase-2, mitochondrial (Homo sapiens)
Assay: in vitro enzyme assay to detect the production of urea directly proportional to the activity of Arginase II
Format: functional
Design: scale not given: in the data most compounds retested in dose-response had high values
Conditions: 33.3 µM
Experimental Readout: Percent Effect (%)
Numbers only; they are read as %.

Entry Cc1cc(C(=O)N2CCCC(c3noc(C)n3)C2)[nH]n1 (configuration not stated) has what Percent Effect?
-3.04

Note, next up: `CC1=N[C@@]2(CC[C@@H]3CN(CC(=O)N(C)C)C[C@@H]32)C(=O)N1CC(C)C`
-20.6

Please give the result for `CCOC(=O)CNC(=O)c1cccnc1Oc1ccc(Cl)cc1` too.
6.85

Input `Cc1noc(C)c1C(=O)NCc1ccnc(OCC(F)(F)F)c1`
0

Another compound to look at: `O=C(CC1CC1)N1CCn2cc(Cn3cncn3)nc2C1`
-13.6

Same read-out for Cc1ccc(-c2nc(CN3CCCC3Cn3cc(C)cn3)no2)cc1 (configuration not stated) ?
-8.43

# iterate: `CS(=O)(=O)c1ccc(NC(=O)N2CCc3sccc3C2)cn1`
1.67

----------
Biological target: Arginase-2, mitochondrial (Homo sapiens)
Assay: in vitro enzyme assay to detect the production of urea directly proportional to the activity of Arginase II
Type: functional
Design: scale not given: in the data most compounds retested in dose-response had high values
Settings: 33.3 µM
Provide the recorded Percent Effect for the entries that follow.
Numbers only; they are read as %.

Which measured Percent Effect value corresponds to COCCc1noc(CN2CCCC2Cn2cc(C)cn2)n1 (stereo not given) ?
-7.98

Further, for `CN1CCc2c(C#N)c(NCc3ccco3)n3cnnc3c2C1` ?
0

And the next one, `CC(C)c1ccc(-c2nnn(CCNS(C)(=O)=O)n2)cc1` ?
-2

How about this compound: `CN(Cc1ncc[nH]1)S(=O)(=O)c1cccc(C(=O)N2CCOCC2)c1`
1.82

Same lookup for CCc1nccn1C1CCCN(C(=O)Cc2cn3ccccc3n2)C1 (stereo not given) , please.
-1.5

Consider next the compound `CCc1nc(CN2CCCN(C(=O)CCSC)CC2)cs1` in the same way.
6.15

Same lookup for `Cn1cccc1C(=O)NCc1cnc2n1CCN(C(=O)N1CCCC1)C2` , please.
-45

Then `CCc1nc(CN2CCCN(C(=O)c3cn[nH]c3CC)CC2)cs1` ?
-6.97

Next up: CN1CCOC(CNC(=O)CCCOc2ccccc2F)C1 (stereo not given)
2.87

CC(NC(=O)CCc1cccs1)c1nnc2n1CCC2 (stereo not given) ?
-0.554

Note, next up: Cc1cnn(CC2CN(CC(=O)NCc3ccccn3)CCO2)c1 (stereo not given)
-4.88

What do you have for `CCC1=N[C@@]2(CC[C@@H]3CN(S(=O)(=O)CC)C[C@@H]32)C(=O)N1CC(C)C` ?
-1.94

Follow-up entry: CN1CC(=O)N(c2ccccc2)CC12CCN(CC1CC1)C2 (stereo not given)
1.22

One more compound: `CCc1nnsc1C(=O)NCCn1nc2ccccn2c1=O`
4.25

Request: `CNC(=O)c1cc2c(nc1NCC1CC1)CCN(c1ccncn1)CC2`
-4.05

----------
Please go through the items and note down their Percent Effect.
Molecular target: Tyrosyl-tRNA synthetase, putative (Trypanosoma cruzi (strain CL Brener))
Assay: Trypanosoma cruzi tyrosyl tRNA synthetase (TcYRS) _High Tyrosine SOP
Format: functional
Parameters: scale not given: in the data most compounds retested in dose-response had high values
Conditions: 30 µM
State the answer as a number, implicitly in %.

Need Percent Effect of `CC(C)c1nn(C)c(N2CCOCC2)c1CNCC(=O)N(C)C` , thanks.
7.18

What do you have for `CN(C)S(=O)(=O)N1CC[C@]2(C[C@H](Oc3cccnc3)CO2)C1` ?
11.1

Same question for c1cnnc(N2CCCC(NCc3ccc(-n4ccnc4)cc3)C2)c1 (stereo not given) please.
0.952

Check `O=C(Cc1cccnc1)N1CCC2(CC1)CCN(C1CCOCC1)C2` too.
1.07

What do you have for `Cn1cc(CN2CCCN(C(=O)c3cn4ccccc4n3)CC2)cn1` ?
3.35

Please do the same for `COC(=O)CCc1c(C)nc2cc(O)nn2c1C` as well.
9.71

# iterate: CC(NC(=O)c1cc(Br)c2c(c1)OCCO2)C(N)=O (stereo not given)
2.63

Do the same for COc1ccc(OCc2sc(C3(O)CCCNCC3)nc2C)cc1 (stereo not given) please
3.23

Also Cc1nc(C)n(CC2CCCN2Cc2cn3ccsc3n2)n1 (stereo not given) ?
3.35

Subsequent entry: O=C(c1ccc(NC2CC2)nc1)N1CCCC(n2cccn2)C1 (stereo not given)
0.49

Proceed to CCOCC1CC2(CCN(C(=O)c3ccccc3F)CC2)CO1 (stereo not given)
2.63

Follow-up item: `CC(C)NC(=O)[C@H]1C[C@@H]2[C@@H](C1)OCCN2Cc1cnn(C)c1`
3.12

Likewise for `CN(C)C(=O)CS(=O)(=O)Cc1cc(Cl)c2c(c1)OCCCO2` ?
1.48

And what about the compound `CCS(=O)(=O)CCn1ccc(NC(=O)CCc2cccc(C)c2)n1` ?
9.9

Can you check `NC(=O)CC1CCN(C(=O)CCOc2ccc(Cl)cc2)CC1` next?
6.37

Can you check `CN(C)C(=O)COCc1cncc2c1CCN(Cc1nccn1C)C2` next?
6.45

Same lookup for `CCN(C(=O)Nc1cccnc1OC)C1CC1` , please.
4.85

Then what about the compound `CNC(=O)c1cc2c(nc1NCC1CC1)CCN(c1ccncn1)CC2` ?
1.06

Follow-up item: `CCc1cnc(N2CCC3(CC2)CN(c2cccnc2)C(=O)CO3)nc1`
-4.32

Now give it for `CCN(Cc1ccc2c(c1)OCO2)C(=O)CCc1c(C)nc(C)[nH]c1=O` too.
3.43

Repeat for the following compound: Nc1nc(CCC(=O)N2CCOC(CC3CCCCC3)C2)cs1 (stereo not given)
9.04

// repeat for `Cc1ccc2oc(C(=O)N3CCc4nnc(N(C)C)cc4C3)cc2n1` and report
4.74

Field entry: COc1ccccc1CC1CCCN(CC(=O)N2CCOCC2)C1 (stereo not given)
-1.91

Could you do the same for `CN(C)[C@@H]1CN(Cc2ccco2)C[C@@H]2CCCO[C@@H]21` , please?
-0.526

Now consider Cc1cnn(CC2CCCN2C(=O)c2cc(C)no2)c1 (stereo not given) and answer again.
-0.493

Now the compound `c1cnc(N2CCC3(CC2)CN(CC2CC2)c2ccccc23)nc1`
33.8

Subsequent entry: c1ncn(CC2CN(Cc3csc(C4CCCC4)n3)CCO2)n1 (stereo not given)
4.43

Same question for O=C1CC(c2ccncc2)C2(CCN(C(=O)c3ccc[nH]3)CC2)N1 (stereo not given) please.
3.24

Ok, now `CCN(C)c1ncnc2c1CCN(Cc1ccc(OC)cc1)CC2`
0.526

And the next one, `CN(C)C(=O)N1CCc2c(CNc3ncccn3)cncc2C1` ?
6.25
